Measured ϕ, listed per entry.
assay: UV-Vis absorption and fluorescence spectroscopy (spectral properties in aqueous media / PBS buffer); type: physicochemical; details: aqueous media; relative quantum yield, TMR and SiTMR as reference
Respond using a number only.

Below are worked cases with known answers.
Cc1cc(C(=O)NCCCn2cc(-c3cccc(Nc4ncnc5ccccc45)c3)nn2)ccc1-c1c2cc/c(=[N+](/C)CCCS(=O)(=O)[O-])cc-2oc2cc(N(C)C)ccc12	0.69
Cc1cc(C(=O)[O-])ccc1C1=C2C=C/C(=[N+](/C)CCCS(=O)(=O)O)C=C2[Si](C)(C)c2cc(N(C)C)ccc21	0.41
CN(C)c1ccc2c(c1)[Si](C)(C)C1=CC(=[N+](C)C)C=CC1=C2c1cc(C(=O)NCCOCCOCCCCCCCl)ccc1C(=O)[O-]	0.25

Data point: C#Cc1cccc(Nc2ncnc3ccc(NC(=O)CCNC(=O)c4ccc(C(=O)[O-])c(C5=C6C=CC(=[N+](C)C)C=C6[Si](C)(C)c6cc(N(C)C)ccc65)c4)cc23)c1 ; ϕ = 0.13

Sample Cc1ccccc1C1=C2C=C/C(=[N+](/C)CCCS(=O)(=O)[O-])C=C2[Si](C)(C)c2cc(N(C)C)ccc21 ; ϕ observed: 0.44

Quick note, ϕ for C#Cc1cccc(Nc2ncnc3ccc(NC(=O)CCNC(=O)c4ccc(-c5c6cc/c(=[N+](/C)CCCS(=O)(=O)[O-])cc-6oc6cc(N(C)C)ccc56)c(C)c4)cc23)c1 landed at 0.28

// ϕ value for Cc1cc(C(=O)NCc2ccc(COc3nc(N)nc4[nH]cnc34)cc2)ccc1-c1c2cc/c(=[N+](/C)CCCS(=O)(=O)[O-])cc-2oc2cc(N(C)C)ccc12 : 0.36

Given item CN(C)c1ccc2c(-c3ccccc3C(=O)[O-])c3ccc(=[N+](C)C)cc-3oc2c1 , the value recorded as its ϕ is 0.54

// field: ϕ; key: C#Cc1cccc(Nc2ncnc3ccc(NC(=O)CCNC(=O)c4ccc(C(=O)[O-])c(-c5c6ccc(=[N+](C)C)cc-6oc6cc(N(C)C)ccc56)c4)cc23)c1 ; value = 0.62

---

experiment: UV-Vis absorption and fluorescence spectroscopy (spectral properties in aqueous media / PBS buffer); format: physicochemical; settings: aqueous media; extinction coefficient from Beer's Law plots
Reported values of ε (M^-1 cm-1) for individual entries

// worked examples, ε (M^-1 cm-1) included
CN(C)c1ccc2c(-c3cc(C(=O)NCc4ccc(COc5nc(N)nc6[nH]cnc56)cc4)ccc3C(=O)[O-])c3ccc(=[N+](C)C)cc-3oc2c1	27,700 M^-1 cm-1
CN(C)c1ccc2c(c1)[Si](C)(C)C1=CC(=[N+](C)C)C=CC1=C2c1cc(C(=O)NCCCn2cc(-c3cccc(Nc4ncnc5ccccc45)c3)nn2)ccc1C(=O)[O-]	24,100 M^-1 cm-1
Cc1cc(C(=O)[O-])ccc1C1=C2C=C/C(=[N+](/C)CCCS(=O)(=O)O)C=C2[Si](C)(C)c2cc(N(C)C)ccc21	200,600 M^-1 cm-1
CN(C)c1ccc2c(-c3cc(C(=O)O)ccc3C(=O)[O-])c3ccc(=[N+](C)C)cc-3oc2c1	83,800 M^-1 cm-1
Cc1cc(C(=O)NCCCn2cc(-c3cccc(Nc4ncnc5ccccc45)c3)nn2)ccc1-c1c2cc/c(=[N+](/C)CCCS(=O)(=O)[O-])cc-2oc2cc(N(C)C)ccc12	50,200 M^-1 cm-1

Now let's try a different one.
For reference, reported ε (M^-1 cm-1) for Cc1cc(C(=O)NCc2ccc(COc3nc(N)nc4[nH]cnc34)cc2)ccc1-c1c2cc/c(=[N+](/C)CCCS(=O)(=O)[O-])cc-2oc2cc(N(C)C)ccc12 stands at 59,500 M^-1 cm-1

# credit: patent US20230287217A1
